Kd values, listed per item
- assay system: thrombin (alpha-thrombin) (Homo sapiens, UniProt P00734;P00734 P00734:315-363,P00734:364-622)
- test method notes: filter
Dear colleague, please return just the value in nM, with no unit written.

Worked cases, answers included:
Q: Provide only the value of recorded Kd for ACTGCCTAGGTTGGGTAGGGTGGTGGCAGT (XNA, 2'-OMe G13, rest DNA) [ARC2625]
Result: 0.568

Q: Provide only the value of recorded Kd for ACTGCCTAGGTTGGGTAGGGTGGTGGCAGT (ssDNA) [ARC2169]
Result: 0.135

Q: Provide only the value of recorded Kd for AAUGATTAGGTTGGGTAGGGTGGTAUCAUU (XNA, 2'-OMe 1-5,26-30, rest DNA) [ARC2829]
Result: 0.93

Q: Provide only the value of recorded Kd for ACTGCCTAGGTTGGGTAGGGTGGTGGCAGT (ssDNA, PS linkage between nt 8 and 9) [ARC2651]
Result: 0.111

Q: Provide only the value of recorded Kd for ATGATTAGGTTGGGTAGGGTGGTATCAT (ssDNA) [ARC2833]
Result: 2.16

Further cases:
Q: Provide only the value of recorded Kd for AUGAUTAGGTTGGGTAGGGTGGTAUCAU (XNA, 2'-OMe 1-5,24-28, rest DNA) [ARC2835]
Result: 1.27

Q: Provide only the value of recorded Kd for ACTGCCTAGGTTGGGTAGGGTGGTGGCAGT (ssDNA, PS linkage between nt 25 and 26) [ARC2668]
Result: 0.159

Q: Provide only the value of recorded Kd for ACUGCCTAGGTTGGGTAGGGTGGTGGCAGU (XNA, 2'-OMe 1-5,27-30, rest DNA) [ARC2825]
Result: 1.03

Q: Provide only the value of recorded Kd for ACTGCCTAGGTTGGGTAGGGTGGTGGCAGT (ssDNA, PS linkage between nt 21 and 22) [ARC2664]
Result: 0.211
